- System: Candida albicans
- assay: Antifungal activity against Candida albicans ATCC 90028 after 48 hrs by agar diffusion bioautography method
- Assay type: functional, organism-based
Calls of active or inactive are those of the source. The calls are words filed in the database; no cut-off is given here.
parameter measured: Activity

mol smiles	value observed
COc1ccc(-c2cc(=O)c3cc(-c4ccc5oc(-c6ccc(OC)cc6)cc(=O)c5c4)ccc3o2)cc1	inactive
O=C1C[C@@H](c2ccc(O)c(-c3cc([C@@H]4CC(=O)c5c(O)cc(O)cc5O4)ccc3O)c2)Oc2cc(O)cc(O)c21	inactive

###

Hi there, I'd appreciate the recorded log10 of MIC for every entry that follows.
- System: Aspergillus niger
- assay: Antifungal activity against Aspergillus niger ATCC 16404 after 48 hrs by broth microdilution technique
- Format: functional
- condition summary: ATCC 16404, 48 h
Hey, these are logged values: log10 of MIC, µM being the unit before logging.

Data request: Can you look up the measured log10 of MIC of O=c1cc(-c2ccc(O)cc2)oc2cc(O)cc(O)c12 for me?
Data returned: 0.78

Data request: Quick one: log10 of MIC for COc1cc(OC)c2c(=O)cc(-c3ccc(OC)c(-c4cc(-c5cc(=O)c6c(OC)cc(OC)cc6o5)ccc4OC)c3)oc2c1 ?
Data returned: 2.60

Data request: Please give the measured log10 of MIC for this compound: COc1cc(O)c(C(=O)/C=C/c2ccc(OC)c(-c3cc(/C=C/C(=O)c4c(O)cc(OC)cc4OC)ccc3OC)c2)c(OC)c1
Data returned: 1.11

Data request: What value of measured log10 of MIC is listed for O=C(/C=C/c1ccccc1)c1ccc(OCc2ccccc2)cc1O ?
Data returned: 2.00

Data request: I am curious: what log10 of MIC value has been reported for O=c1cc(-c2ccc(O)c(-c3cc(-c4cc(=O)c5c(O)cc(O)cc5o4)ccc3O)c2)oc2cc(O)cc(O)c12 ?
Data returned: 2.00

Data request: Reported log10 of MIC for O=C1CC(c2ccc(O)c(-c3cc(C4CC(=O)c5ccc(O)cc5O4)ccc3O)c2)Oc2cc(O)ccc21 (stereo not drawn) : what is it?
Data returned: 2.30

Origin of the recorded values: ChEMBL document CHEMBL1777672
